Data provenance: the supplement of paper PMC4862054

# System: MDA-MB-436
# assay procedure: normalised response (% of control), CellTox Green; higher = less cell death (100 = DMSO, 0 = benzethonium chloride kill control)
# run conditions: incubation time: 72 h
# Lookup of reported normalised response keyed by entry
Please respond with the number in % and leave the unit unwritten.

- COc1cc(CCc2cc(NC(=O)c3ccc(N4CC(C)NC(C)C4)cc3)n[nH]2)cc(OC)c1 (configuration not stated) [AZD4547] (10 nM): 55.9

q: Look at this compound and give its reported normalised response. O=C(NC[C@H](O)CO)c1ccncc1Nc1ccc(I)cc1F [Pimasertib] (10000 nM)
a: 100

q: Look at this compound and give its reported normalised response. Cc1nc(Nc2ncc(C(=O)Nc3c(C)cccc3Cl)s2)cc(N2CCN(CCO)CC2)n1 [Dasatinib] (10 nM)
a: 98

q: Look at this compound and give its reported normalised response. CC(=O)OC[C@H]1O[C@@H]([S-])[C@H](OC(C)=O)[C@@H](OC(C)=O)[C@@H]1OC(C)=O.CCP(CC)CC.[Au+] [Auranofin] (2500 nM)
a: 84.1

q: Look at this compound and give its reported normalised response. O=C(Nc1c[nH]nc1-c1nc2ccc(CN3CCOCC3)cc2[nH]1)NC1CC1 [AT9283] (1000 nM)
a: 77.6

q: Look at this compound and give its reported normalised response. CC[C@@]1(O)C(=O)OCc2c1cc1n(c2=O)Cc2cc3c(CN(C)C)c(O)ccc3nc2-1 [Topotecan] (100 nM)
a: 76.5

q: Look at this compound and give its reported normalised response. Cc1cccc(-c2nn3c(c2-c2ccnc4ccc(C(N)=O)cc24)CCC3)n1 [Galunisertib] (10 nM)
a: 104

* * *

# System: Hs578T
# assay procedure: drug sensitivity score (DSS), CellTiter-Blue viability (DSS (AUC-based score)); higher = stronger viability inhibition; extreme values may be limits of the assay
# run conditions: incubation time: 72 h
parameter: drug sensitivity score
Hey, just send me the number, nothing else.

Use these answered entries as a reference point.
• CS(=O)(=O)N1CCN(Cc2cc3nc(-c4cccc5[nH]ncc45)nc(N4CCOCC4)c3s2)CC1 = 8.67
• CC[C@@]1(O)C(=O)OCc2c1cc1n(c2=O)Cc2cc3c(CN(C)C)c(O)ccc3nc2-1 = 0
• O=C1c2c(O)ccc(O)c2C(=O)c2c(NCCNCCO)ccc(NCCNCCO)c21 = 4.05
• COc1nc(N)nc2c1ncn2[C@@H]1O[C@H](CO)[C@@H](O)[C@@H]1O = 0
• Cc1ccc(Nc2nccc(N(C)c3ccc4c(C)n(C)nc4c3)n2)cc1S(N)(=O)=O = 0

// switching to the query molecule
q: Look at this molecule and give its reported drug sensitivity score. `Nc1ccccc1NC(=O)c1ccc(CNc2nccc(-c3cccnc3)n2)cc1`
a: 6.43

* * *

# Tested on: MDA-MB-436
# run conditions: 72 h
# Lookup of reported EC50, CellTiter-Blue viability keyed by entry
Please respond with the number in nM and leave the unit unwritten.

- CS(=O)(=O)N1CCN(Cc2cc3nc(-c4cccc5[nH]ncc45)nc(N4CCOCC4)c3s2)CC1 [GDC-0941]: 2390
- Cc1ccc(Nc2nccc(N(C)c3ccc4c(C)n(C)nc4c3)n2)cc1S(N)(=O)=O [Pazopanib]: 107
- Cc1nc(Nc2ncc(C(=O)Nc3c(C)cccc3Cl)s2)cc(N2CCN(CCO)CC2)n1 [Dasatinib]: 78.5
- CO[C@@H](C(=O)N1Cc2[nH]nc(NC(=O)c3ccc(N4CCN(C)CC4)cc3)c2C1)c1ccccc1 [Danusertib]: 1480
- Cn1cc(CNCC2CCN(c3ncc(C(=O)NO)cn3)CC2)c2ccccc21: 279

// switching to the query compound
q: Request: EC50, CellTiter-Blue viability, test system MDA-MB-436, entry O=C1c2c(O)ccc(O)c2C(=O)c2c(NCCNCCO)ccc(NCCNCCO)c21 [Mitoxantrone]
a: 684
